Sourced from patent US8865623B2

The reader will find reported pest or weed control at 250 g/ha values listed item by item below.
Test system: Echinochloa crus-galli (ECHCG)
Test: Pre-emergence herbicidal activity, glasshouse pot test
Type: in vivo
Details: Echinochloa crus-galli, 312 h; Rate 250 g/ha; pre-emergence spray; evaluated after 13 days; read-out: Pre-emergence activity ECHCG (100=total damage to plant; 0=no damage to plant)
Please reply with the bare figure in % and do not write the unit itself.

- CHEM SMILES: "CCc1ccc(Oc2nc(OC)cc(OC)n2)cc1C1=C(O)C(C)(C)OC(C)(C)C1=O"
  QUANTITY NAME: "pest or weed control at 250 g/ha"
  OBSERVED VALUE: 0
- CHEM SMILES: "CCc1ccc(Oc2ccc(C(F)(F)F)cc2Br)cc1C1=C(O)C(C)(C)OC(C)(C)C1=O"
  QUANTITY NAME: "pest or weed control at 250 g/ha"
  OBSERVED VALUE: 100
- CHEM SMILES: "CCc1ccc(Oc2nc(F)c(Cl)cc2Cl)cc1C1=C(O)C(C)(C)OC(C)(C)C1=O"
  QUANTITY NAME: "pest or weed control at 250 g/ha"
  OBSERVED VALUE: 50
- CHEM SMILES: "CCc1ccc(Oc2nc3ccc(OC)cc3s2)cc1C1=C(O)CC(C)(C)CC1=O"
  QUANTITY NAME: "pest or weed control at 250 g/ha"
  OBSERVED VALUE: 100
- CHEM SMILES: "CCc1ccc(Oc2cnc3cc(Cl)ccc3n2)cc1C1=C(O)C(C)(C)OC(C)(C)C1=O"
  QUANTITY NAME: "pest or weed control at 250 g/ha"
  OBSERVED VALUE: 100

Next compound, please.
Would you kindly share the measured pest or weed control at 250 g/ha for CCc1ccc(Oc2ccc([N+](=O)[O-])cc2C(F)(F)F)cc1C1=C(O)CC2(CCOCC2)CC1=O ?
70
